Collected IC50 values appear next to each entry.
# SYSTEM NAME: UniProtKB Q96P20
# Sequence (Q96P20 whole entry): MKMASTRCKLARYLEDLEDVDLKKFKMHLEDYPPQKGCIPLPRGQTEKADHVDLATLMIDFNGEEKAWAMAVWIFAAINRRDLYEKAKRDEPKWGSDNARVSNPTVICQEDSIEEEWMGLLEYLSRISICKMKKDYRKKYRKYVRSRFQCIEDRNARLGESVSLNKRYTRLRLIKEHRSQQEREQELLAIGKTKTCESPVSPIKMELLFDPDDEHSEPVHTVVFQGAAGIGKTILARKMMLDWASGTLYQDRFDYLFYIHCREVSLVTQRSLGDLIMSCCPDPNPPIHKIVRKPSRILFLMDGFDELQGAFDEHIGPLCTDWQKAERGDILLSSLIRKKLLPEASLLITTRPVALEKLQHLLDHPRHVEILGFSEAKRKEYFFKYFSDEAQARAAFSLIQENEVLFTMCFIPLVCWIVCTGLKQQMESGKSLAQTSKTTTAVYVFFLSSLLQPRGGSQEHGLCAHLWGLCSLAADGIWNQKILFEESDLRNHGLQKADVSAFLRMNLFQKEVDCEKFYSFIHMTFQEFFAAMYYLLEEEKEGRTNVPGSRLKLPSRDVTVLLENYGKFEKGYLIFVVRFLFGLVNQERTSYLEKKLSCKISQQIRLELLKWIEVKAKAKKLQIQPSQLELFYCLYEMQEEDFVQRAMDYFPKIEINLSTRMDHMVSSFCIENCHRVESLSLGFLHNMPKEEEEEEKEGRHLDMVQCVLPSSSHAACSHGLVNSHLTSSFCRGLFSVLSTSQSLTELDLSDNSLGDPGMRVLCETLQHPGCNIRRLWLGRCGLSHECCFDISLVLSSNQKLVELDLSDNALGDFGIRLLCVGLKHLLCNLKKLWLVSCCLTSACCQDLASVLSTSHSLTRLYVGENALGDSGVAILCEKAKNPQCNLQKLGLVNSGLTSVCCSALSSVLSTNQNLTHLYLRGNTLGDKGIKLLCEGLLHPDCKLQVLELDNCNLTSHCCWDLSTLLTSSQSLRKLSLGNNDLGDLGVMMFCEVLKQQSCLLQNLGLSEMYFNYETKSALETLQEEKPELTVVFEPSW
# METHOD: Human whole blood IL1β release assay
# Type: cell-based
# CONDITIONS USED: LPS 1 μg/ml, nigericin 10 μM, IL-1β AlphaLisa, 10 μM top dose (Example 2: top dose of 30 μM), read-out: HWB IC50
ENDPOINT NAME: IC50

INSERT INTO assay_data (molecule, value_reported) VALUES
  ('CCN(CC)CCNS(=O)(=O)c1nnc(Nc2c3c(cc4c2CCC4)CCC3)[nH]1', '≤ 1 µM'),
  ('O=S(=O)(c1nnc(Nc2c3c(cc4c2CCC4)CCC3)[nH]1)N1CC2(CCN(C3CC3)C2)C1', '≤ 5 µM'),
  ('CN1CC2(C1)CN(S(=O)(=O)c1nnc(Nc3c4c(cc5c3CCC5)CCC4)[nH]1)C2', '≤ 0.5 µM'),
  ('Cc1cc(-c2ccc3c(c2Nc2nnc(S(=O)(=O)N4CCC(N(C)C)CC4)[nH]2)CCC3)ccn1', '≤ 5 µM'),
  ('COc1cc(-c2cc(F)cc(C(C)C)c2Nc2nnc(S(=O)(=O)N3CCC4(CCN4C)CC3)[nH]2)ccn1', '≤ 5 µM'),
  ('O=S(=O)(c1nnc(Nc2c3c(cc4c2CCC4)CCC3)[nH]1)N1CCC(N2CCCC2)C1 (stereo not drawn)', '≤ 5 µM'),
  ('COc1cc(-c2cc(F)cc(C(C)C)c2Oc2nnc(S(=O)(=O)N3CC4(CCN(C)C4)C3)[nH]2)ccn1', '≤ 5 µM'),
  ('CN1CCCC12CCN(S(=O)(=O)c1nnc(Nc3c4c(cc5c3CCC5)CCC4)[nH]1)CC2', '≤ 0.5 µM'),
  ('CNC1CCN(S(=O)(=O)c2nnc(Nc3c4c(cc5c3CCC5)CCC4)[nH]2)CC1', '≤ 5 µM'),
  ('CN(C)C1CCN(S(=O)(=O)c2nnc(Nc3c4c(cc5c3CCC5)CCC4)[nH]2)CC1', '≤ 0.5 µM'),
  ('CC(C)(O)Cn1ccc(S(=O)(=O)c2nnc(Nc3c4c(cc5c3CCC5)CCC4)[nH]2)n1', '≤ 10 µM'),
  ('O=S(=O)(c1nnc(Nc2c3c(cc4c2CCC4)CCC3)[nH]1)N1CCC2(CCCN2)CC1', '≤ 1 µM'),
  ('CCN(CC)CCCS(=O)(=O)c1nnc(Nc2c(-c3ccnc(OC)c3)ccc3c2CCC3)[nH]1', '≤ 5 µM'),
  ('COc1cc(-c2ccc3c(c2Nc2nnc(S(=O)(=O)N4CC5(CCN(C)C5)C4)[nH]2)CCO3)ccn1', '≤ 0.5 µM'),
  ('Cc1cc2c(c(Nc3nnc(S(C)(=O)=O)[nH]3)c1-c1ccnc(OC3CCN(C)CC3)c1)CCC2', '≤ 5 µM'),
  ('CN(C)C1CCN(S(=O)(=O)c2nnc(Nc3c(-c4ccncc4)ccc4c3CCO4)[nH]2)CC1', '≤ 5 µM'),
  ('COc1cc(-c2ccc3c(c2Nc2nnc(S(=O)(=O)N4CCC(N(C)C)CC4)[nH]2)CCO3)ccn1', '≤ 1 µM'),
  ('COc1cc(-c2ccc3c(c2Nc2nnc(S(=O)(=O)N4CCC5(CCN5C)CC4)[nH]2)CCO3)ccn1', '≤ 5 µM'),
  ('CN(C)C1CCN(S(=O)(=O)c2nnc(Nc3c4c(c(Cl)c5c3CCC5)CCC4)[nH]2)CC1', '≤ 5 µM'),
  ('CN1CCC12CCN(S(=O)(=O)c1nnc(Nc3c4c(cc5c3CCC5)CCC4)[nH]1)CC2', '≤ 0.5 µM'),
  ('CN1CCOC2(C1)CN(S(=O)(=O)c1nnc(Nc3c4c(cc5c3CCC5)CCC4)[nH]1)C2', '≤ 1 µM'),
  ('CN(C)CC1CCN(S(=O)(=O)c2nnc(Nc3c4c(cc5c3CCC5)CCC4)[nH]2)C1 (stereo not drawn)', '≤ 0.5 µM'),
  ('CC(C)c1cnn(-c2ccncc2)c1Nc1nnc(S(=O)(=O)N2CCC(N(C)C)CC2)[nH]1', '≤ 0.5 µM'),
  ('COc1cc(-c2ccc3c(c2Nc2nnc(S(=O)(=O)c4cccc(CN(C)C)c4)[nH]2)CCC3)ccn1', '≤ 5 µM'),
  ('CC1(O)CCN(S(=O)(=O)c2nnc(Nc3c4c(cc5c3CCC5)CCC4)[nH]2)CC1', '≤ 5 µM'),
  ('O=S(=O)(Cc1ccccc1)c1nnc(Nc2c3c(cc4c2CCC4)CCC3)[nH]1', '≤ 30 µM'),
  ('COc1cc(-c2cc(F)cc(C(C)C)c2Oc2nnc(S(=O)(=O)N3CCC4(CCCN4C)CC3)[nH]2)ccn1', '≤ 5 µM'),
  ('CC(C)N1CCC2(C1)CN(S(=O)(=O)c1nnc(Nc3c4c(cc5c3CCC5)CCC4)[nH]1)C2', '≤ 0.5 µM'),
  ('CN(C)C(=O)Cn1ccc(S(=O)(=O)c2nnc(Nc3c4c(cc5c3CCC5)CCC4)[nH]2)n1', '≤ 5 µM'),
  ('COc1cc(-c2ccc3c(c2Nc2nnc(S(=O)(=O)N4CC5(CCN(C)C5)C4)[nH]2)CCC3)ccn1', '≤ 0.5 µM');
